- Test system: Saccharomyces cerevisiae;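 note: PSI is a weighted mean of sequencing reads over stability bins, variants kept only with over 10 reads, mCherry proximal and sfGFP distal, peptide attached via GGGS linker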
- method_notes: protein stability index of tFT-peptide fusion (C-terminal peptide) (PSI (0-1 scale)); higher = more stable (slower turnover)
- test_settings: genetic background: wild type; temperature: 30 C
measured_parameter: protein stability index
Please give only the number in your answer, with no unit.

What does the record list as protein stability index for GEAEGGEEYGEG ?
0.636

What does the record list as protein stability index for GGGGSRGRVGDI ?
0.718

What does the record list as protein stability index for IVVVVRLSPILG ?
0.331

Others:
What does the record list as protein stability index for PTMGRRPGRGGA ?
0.699

What does the record list as protein stability index for SCSGVHYLGSSL ?
0.679

What does the record list as protein stability index for CGFGVSHASRIF ?
0.78
